Taken from PubChem BioAssay AID1851.

# target.under.test: Cytochrome P450 1A2 (Homo sapiens)
# test: Cytochrome panel assay with activity outcomes
# condition.details: recombinant CYP, pro-luciferin dealkylation, luminescence, p450-cyp1a2; series mostly up to 57.1 µM
The campaign covered roughly 16,000 compounds. About 5,700 (36%) were called active. Inconclusive results (about 24%) are left out. Calls come from the whole dose curve; as a rule, active = well fitted curve in the direction sought with a large enough effect; inconclusive = small, poorly fitted or top-dose-only effect, or effect the other way; inactive = no such curve, though single readings can be large or run the other way. Some of the results follow.
Outcome codes: active, inactive

| compound | label.class |
| --- | --- |
| Cn1cnc2c(NC3CCCC3)ncnc21 | active |
| C[n+]1cc(-c2ccccc2)n2c1CCCCC2 | inactive |
| O=C(CP(=O)(c1ccccc1)c1ccccc1)Nn1cnnc1 | inactive |
| COCCN1CN=C(Nc2nc3ccccc3s2)NC1 | inactive |
| C(/C=C\c1ccccc1)=Nc1ccc2c(c1)Cc1ccccc1-2 | active |
| CCOc1cc(CNc2ccc(OC)cc2)cc(Br)c1OCC(=O)NC(C)(C)C | active |
| Cc1n[nH]c(C)c1S(=O)(=O)N1CCC(C(=O)O)CC1 | inactive |
| COc1ccccc1CNc1ncnc2ccc(-c3ccoc3)cc12 | active |
| Oc1cc(O)c2c(c1)O[C@H](c1ccc(O)c(O)c1)[C@H](O)C2 | inactive |
| OC[C@@H]1O[C@@H](n2cnc3c(NC4CCCC4)ncnc32)[C@H](O)[C@H]1O | inactive |
| CS(=O)(=O)c1ccc(-c2cc(Br)sc2-c2ccc(F)cc2)cc1 | active |
| COc1ccc(CN2CN=C(Nc3nc4ccccc4s3)NC2)cc1 | active |
